Where do the numbers come from? From paper PMC7615676.

Experiment: bioanalysis of blood samples from in vivo efficacy studies
Set-up: species or system BALB/c mice
Details: BALB/c, mouse, whole blood, po, 100 mg/kg, compound 2 100mg/kg bid (changed to qd after day 1), 10-day study; read-out: Cmax Day 10

{"columns": ["molecular-string", "Cmax / ng/mL"],
 "data": [
  ["COc1cc(F)ccc1-c1c(C)[nH]c2nc(N)nc(C)c12", 2260]
]}

###

Assay: bioanalysis of blood samples from in vivo efficacy studies
Parameters: species or system BALB/c mice
Conditions: BALB/c, mouse, whole blood, po, 50 mg/kg, compound 3 50mg/kg bid, 10-day study; read-out: Cmax Day 1
recorded-endpoint: Cmax (ng/mL)

{"columns": ["molecular-string", "recorded-endpoint", "test-result"],
 "data": [
  ["COc1cc(Cl)ccc1-c1c(C)[nH]c2nc(N)nc(C)c12", "Cmax", 325]
]}
